Every entry's value here was drawn from ChEMBL document CHEMBL5528068.

Target: G-protein coupled receptor 84 (Homo sapiens, UniProt Q9NQS5)
Sequence (Q9NQS5 whole entry): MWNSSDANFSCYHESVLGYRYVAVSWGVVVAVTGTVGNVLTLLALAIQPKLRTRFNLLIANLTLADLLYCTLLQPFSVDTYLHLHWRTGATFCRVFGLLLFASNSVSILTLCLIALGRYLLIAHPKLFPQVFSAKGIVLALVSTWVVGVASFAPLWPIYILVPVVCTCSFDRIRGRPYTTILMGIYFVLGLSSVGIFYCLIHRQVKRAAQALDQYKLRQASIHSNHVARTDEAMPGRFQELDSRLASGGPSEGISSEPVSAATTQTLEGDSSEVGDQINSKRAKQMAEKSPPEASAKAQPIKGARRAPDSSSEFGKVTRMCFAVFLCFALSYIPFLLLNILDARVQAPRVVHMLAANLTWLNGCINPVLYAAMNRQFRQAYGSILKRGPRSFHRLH
Test: Agonist activity at GPR84 (unknown origin) expressed in HTLA cells assessed as beta-arrestin recruitment incubated for 1 day by PRESTO-Tango assay
MEASURED_QUANTITY: pEC50
pEC50 field: float, defined as -log10 of concentration (mol/L).

CCCC(=O)NCCCCc1cc(O)cc(=O)[nH]1 :: 4.63
O=c1cc(O)cc(CCc2cccc(-c3ccccc3)c2)[nH]1 :: 5.37
CCCc1ccc(CCc2cc(O)cc(=O)[nH]2)cc1 :: 9.52
CC(C)Cc1ccc(CCc2cc(O)cc(=O)[nH]2)cc1 :: 7.90
CCOc1ccc(CCc2cc(O)cc(=O)[nH]2)cc1 :: 7.35

## Input Using the record for CCCCCCCCCCc1cc(O)cc(=O)[nH]1 , report its pEC50.
## Output 9.62

## Input Record request: pEC50 value, item O=C1c2ccccc2C(=O)N1CCCCc1cc(O)cc(=O)[nH]1
## Output 5.49

## Input Return reported pEC50; argument: CCCc1ccc(COc2cc(O)cc(=O)[nH]2)cc1
## Output 8.49

## Input Please look up its pEC50: O=c1cc(O)cc(-c2ccc(Oc3ccccc3)nc2)[nH]1
## Output 8.98

## Input Please give the measured pEC50 for this molecule: O=c1cc(O)cc(CCc2ccc(OC(F)(F)F)cc2)[nH]1
## Output 7.96

## Input Which value of pEC50 has been reported for CCCCc1ccc(-c2cc(O)cc(O)n2)cc1 in the records?
## Output 7.59
